protocol.text: Glutathione addition screening
Type: in vitro ADME
study.conditions: human liver microsomes + NADPH + GSH
Procedure: All sample handling was performed based on a 96-well plate format using an automated pipetting system. […] Stable GSH conjugates whose production can be assumed to be the result of chemically reactive metabolites were detected using a quadrupole time of flight mass spectrometer run in untargeted full scan accurate mass MSE mode (Waters Xevo G1 QTOFMSE; Waters GmbH, Eschborn, Germany). […]
measured.metric: GSH adducts

Below, 4 molecules whose answers are already recorded.
- molecule: "O=C(COc1ccc(OC(F)(F)F)cc1)N1C[C@@H]2CN(C(=O)c3ccc4[nH]nnc4c3)C[C@H]2C1"
  GSH adducts: "Neg"
- molecule: "O=C(OCc1cc(Cl)cc(Cl)c1)N1CCC2(CC1)CN(C(=O)c1ccc3[nH]c(=O)oc3c1)C2"
  GSH adducts: "pos"
- molecule: "O=C(OCc1cc(Cl)cc(Cl)c1)N1CC[C@@H]2CN(C(=O)c3ccc4[nH]nnc4c3)C[C@H]2C1 (relative stereo)"
  GSH adducts: "pos"
- molecule: "O=C(OCc1cc(Cl)cc(Cl)c1)N1C[C@@H]2CN(C(=O)c3ccc4[nH]nnc4c3)C[C@H]2C1"
  GSH adducts: "pos"

Lab note: next molecule to report on.
Challenge: Would you kindly share the measured GSH adducts for O=C(CCc1ccc(OC(F)(F)F)cc1)N1C[C@@H]2CN(C(=O)c3ccc4[nH]nnc4c3)C[C@H]2C1 ?
Response given: Neg
